Experiment: protein stability index of a GFP-peptide fusion (yeast GPS) (PSI 1-4); higher = more stable; sorted into four equal gates, so the index is relative within each strain
Settings: pdr5∆
endpointLabel: protein stability index
One number for each entry.

Known results for sequences:
* NLEESSKLDIYTQQQAL [RET1] | 2.77
* TSLITAVYGPRSIRGSF [MTR3] | 2.72
* LKQEGAANKTVVVVGTV [RPL18A] | 3.31
* ILLTSISRERDLFTHLW [SRP68] | 2.71
* LQCPMLYVESTGKFVLQ [CSN12] | 2.98

For each listed entry, give its protein stability index.
1. ETKTKKEKIKGLQDEIM [SMC4]
2. CRNDAVNWLAYTYLYVR [BRR2]
3. AHAQHQPSQQPQQAQQQ [GAL11]

Marked response:
1. 3.32
2. 3.54
3. 3.03

====

Experiment: protein stability index of a GFP-peptide fusion (yeast GPS) (PSI 1-4); higher = more stable; sorted into four equal gates, so the index is relative within each strain
Conditions: ubr1∆
endpointLabel: protein stability index
Answers are plain numbers.

* QYTQRLSKLEKALDRHE [SRP68] | 2.66
* LRKNKLGYARFILLDRL [SMC4] | 1.15
* TSLSSKDLSNYRKTEGI [YMR153W/NUP53] | 3.35
* TKSMVKIAEQYSKRIEE [RPN11] | 2.28
* RYWVQKERSDGKRHIFD [CDC53] | 2.91

For each listed entry, give its protein stability index.
1. GRSNEIVKTTTKQRLDA [PRP8]
2. KMENLMRLIKRVRAESL [YJL039C/NUP192]
3. PVEKVKEHDEIEEQGDA [DPB4]
4. DGSKMLKRADYTAVDTA [RPN14]

Marked response:
[3.2, 1.12, 3.5, 3.26]

For each listed entry, give its protein stability index.
1. IISTAIADSTHVKRITK [ECM29]
2. RVAASFSQEALQYVVER [FAS1]
3. KVLEMKNLKDTASVEKA [YIL149C/MLP2]
4. KDLVTENAYDNPLADAE [PRE4]
5. TSQNPQRDAEISQPKSM [BRR2]
6. KSIRKDTVEEKKEEKLN [SIR4]
7. DVDPEFYLKYVDIRVGK [RET1]

Marked response:
1. 3.13
2. 1.14
3. 3.21
4. 3.21
5. 2.88
6. 2.76
7. 2.54

For each listed entry, give its protein stability index.
1. SMFSGLDSTGFDSTAFN [MED2]
2. PRMASVFENYVKKTGEN [CDC53]
3. IIDAKTRNEQTTIQTEK [MCD1]

Marked response:
3.1
3.47
3.01

For each listed entry, give its protein stability index.
1. VKGDLLQEAIDFAQKEI [PRE10]
2. PSTGGVKKPHRYKPGTV [HHT1]

Marked response:
2.9
1.81

For each listed entry, give its protein stability index.
1. SFGSKPTGKEEGDGAKA [YJL041W/NSP1]
2. RADTMDFKTDVDEPMTS [YJL039C/NUP192]
3. FNFVLLGQIGACHVEVP [COB]
4. KEAFEEEIKQSARNYDK [SMC1]
5. TVIEGVKEESQPDENTK [SWI3]
6. GHVGSVQISNIPDIGDL [PRP8]

Marked response:
1: 3.21; 2: 3.3; 3: 1.6; 4: 3.31; 5: 3; 6: 3.03

For each listed entry, give its protein stability index.
1. KREEKAMTIYWDDHTKK [CDC53]
2. LQKAVRGHVLQFEWHQN [SNF2]
3. TPDDDEIDVENHDRINI [RPN8]
4. AVDNCAICRNHIMEPCI [HRT1]

Marked response:
2.25
1.35
2.68
2.2

For each listed entry, give its protein stability index.
1. NNDADKGRSYAYFMVGA [RIP1]
2. TRGGASALIENNLFRII [YJL039C/NUP192]
3. ELLEHIETIGHLITKEE [RPN5]

Marked response:
[3.07, 2.7, 3.12]

For each listed entry, give its protein stability index.
1. LEAARSEKQNDEEAAGA [PRP8]
2. MGKGTPSFGKRHNKSHT [RPL37A]

Marked response:
1: 2.32; 2: 3.02
